Measured CC50, listed per entry.
# Protocol: In vitro nephrotoxicity, GGT release from primary human kidney cells
# Format: cell-based
# Experimental Parameters: pH 7.4
Positions of bridges follow the written chain, without caps; N, C: chain ends. Non-standard residues stand in square brackets, D forms with d. Residues, ends and D or L forms follow the SMILES beside them. *: point of attachment. Decanoyl(3R-OH) = CCCCCCC[C@@H](O)CC(=O)*; dDab = NCC[C@@H](N)C(=O)O; Dab = NCC[C@H](N)C(=O)O; Dap = NC[C@H](N)C(=O)O

Reported CC50 ( CCCCCCC[C@@H](O)CC(=O)N[C@H](CCN)C(=O)N[C@H]1CCNC(=O)[C@H](Cc2c[nH]c3ccccc23)NC(=O)[C@H](CCN)NC(=O)[C@H](CCN)NC(=O)[C@H](CC(C)C)NC(=O)[C@@H](Cc2ccccc2)NC(=O)[C@H](CCN)NC1=O [compound 6509] ({Decanoyl(3R-OH)}-[dDab][Dab][Dab][dF]L[Dab][Dab]W; lactam 2-C) ) = > 128 µg/mL

Reported CC50 ( CCCCCCC[C@@H](O)CC(=O)N[C@H](CCN)C(=O)N[C@H]1CCNC(=O)[C@H](CC(C)C)NC(=O)[C@H](CCN)NC(=O)[C@H](CCCNC(=N)N)NC(=O)[C@H](CC(C)C)NC(=O)[C@@H](Cc2ccccc2)NC(=O)[C@H](CCN)NC1=O [compound 8733] ({Decanoyl(3R-OH)}-[dDab][Dab][Dab][dF]LR[Dab]L; lactam 2-C) ) = > 128 µg/mL

Reported CC50 ( CCCCCCC[C@@H](O)CC(=O)N[C@H](CCN)C(=O)N[C@H]1CCNC(=O)[C@H](CC(C)C)NC(=O)[C@H](CCN)NC(=O)[C@H](CN)NC(=O)[C@H](CC(C)C)NC(=O)[C@@H](Cc2ccccc2)NC(=O)[C@H](CCN)NC1=O [compound 990] ({Decanoyl(3R-OH)}-[dDab][Dab][Dab][dF]L[Dap][Dab]L; lactam 2-C) ) = > 128 µg/mL
